B1: POU domain, class 3, transcription factor 2, residues 262 to 338; numbered along this chain, P20265 (parent)
chain: EDTPTSDDLEQFAKQFKQRRIKLGFTQADVGLALGTLYGNVFSQTTICRFEALQLSFKNMCKLKPLLNKWLEEADSS

# Variants of: B1
# protocol: abundance fitness (aPCA) (normalised: wild type 0, dead -1); higher = more abundant; growth selection in yeast, the domain comes from the species named
# test-context: Homo sapiens
Attribute: abundance fitness
Reply with the value as a number alone.

Past entries and their recorded results:
# sequence-entry, abundance fitness
records = [
    ("EDTPTSDDLEQFAKQFKQRRIKLGFTQADVGLALGTLYGNVFSQTTICRGEALQLSFKNMCKLKPLLNKWLEEADSS [F50G]", -0.839),
    ("EDTPTSDDLEQFAKQFKQRRIKLGFTQADVGLALGTLYGNVFSQTTICRFEALQLPFKNMCKLKPLLNKWLEEADSS [S56P]", 0.044),
    ("EDTPTSDDLEQFAKQFKQRRIKLGFTQADVGLALGTLYGNVFSQTTICRFEANQLSFKNMCKLKPLLNKWLEEADSS [L53N]", -0.022),
    ("EDTPTSDDLEQFAKQFKQRRIKLGFTQADVGLALGTLYGNVFSQTTICRFEAYQLSFKNMCKLKPLLNKWLEEADSS [L53Y]", 0.018),
]

Alright, here's another variant for you.
IN: Please give the measured abundance fitness for this variant: EDTPTSDDLEQFAKTFKQRRIKLGFTQADVGLALGTLYGNVFSQTTICRFEALQLSFKNMCKLKPLLNKWLEEADSS [Q15T]
OUT: -0.038

Data provenance is the Human Domainome abundance scans (Beltran et al. 2025).
